Recorded values, source the RNAGym collection of RNA variant scans (doi:10.1101/gr.219683.116).

B1: mRNA-splicing (parent)
chain: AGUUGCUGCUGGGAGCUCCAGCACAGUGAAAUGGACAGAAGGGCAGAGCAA

# Variants of: B1
# EXPERIMENT: exon inclusion enrichment index; higher = more inclusion; WT1 exon 5 minigene, HEK293
REPORTED_ENDPOINT: exon inclusion enrichment index
Reply with the value as a number alone.

Please review the following examples before continuing.
C6A U7A C9A U10A A35C
0.237
G5C C6G U7C U10C A37G
4.39
G5A C6G U7G C9A C16G U17A
0.00122
U4C G5C
0.153
C6A U7A C9A U10A U32C
1.37

# query: exon inclusion enrichment index of entry G5A C6G U7G C9A A47G G48A
0.000837

# query: exon inclusion enrichment index of entry G5C C6U G8C C9U U10C C19G A20C
1.8

# query: exon inclusion enrichment index of entry G5C C6U G8C C9U U10C A29U A30U
0.629

# query: exon inclusion enrichment index of entry G5C C6U G8C C9U U10C G38C A39U
0.141

# query: exon inclusion enrichment index of entry C6A U7A C9A U10A A31G U32A
2.95

# query: exon inclusion enrichment index of entry C44G A45G
0.0345

# query: exon inclusion enrichment index of entry G5A C6G U7G C9A A29U A30U
0.000968

# query: exon inclusion enrichment index of entry G5A C6G U7G G8A C9G
0.0105

# query: exon inclusion enrichment index of entry G5C C6U G8C C9U U10C A40G
1.61

# query: exon inclusion enrichment index of entry U32G G33C
0.143

# query: exon inclusion enrichment index of entry A25G G26A
0.573

# query: exon inclusion enrichment index of entry C6A U7A C9A U10A G13A
1.97

# query: exon inclusion enrichment index of entry G5A C6U U7A G8U C9A G13U A14U
0.0119

# query: exon inclusion enrichment index of entry G5C C6U G8C C9U U10C G28C A29U
1.13

# query: exon inclusion enrichment index of entry G5C C6G U7C U10C A30C A31G
4.15

# query: exon inclusion enrichment index of entry G5C C6G U7C U10C A20G
0.887

# query: exon inclusion enrichment index of entry G5C C6U G8C C9U U10C A45U
2.45

# query: exon inclusion enrichment index of entry C6A U7C C9A U10C G43U C44A
0.0402

# query: exon inclusion enrichment index of entry G5U G8U C9U C18G
0.139

# query: exon inclusion enrichment index of entry G2U U3G C6A U7A C9A U10A
2.07

# query: exon inclusion enrichment index of entry G5A U7C G8A U10C
2.53

# query: exon inclusion enrichment index of entry C6A U7C C9A U10C A14C G15A
2.13

# query: exon inclusion enrichment index of entry G5A C6G U7G C9A G11C G12U
0.00113

# query: exon inclusion enrichment index of entry G5A U7C G8A U10C G13U A14U
1.08

# query: exon inclusion enrichment index of entry G5A C6G U7G C9A A25C G26C
0.00427

# query: exon inclusion enrichment index of entry G5C C6G U7C U10C C36G
3.17
